The listing below reports pKi for compounds tested on 5-hydroxytryptamine receptor 1A (Rattus norvegicus, UniProt P19327).
Sequence (P19327 whole entry): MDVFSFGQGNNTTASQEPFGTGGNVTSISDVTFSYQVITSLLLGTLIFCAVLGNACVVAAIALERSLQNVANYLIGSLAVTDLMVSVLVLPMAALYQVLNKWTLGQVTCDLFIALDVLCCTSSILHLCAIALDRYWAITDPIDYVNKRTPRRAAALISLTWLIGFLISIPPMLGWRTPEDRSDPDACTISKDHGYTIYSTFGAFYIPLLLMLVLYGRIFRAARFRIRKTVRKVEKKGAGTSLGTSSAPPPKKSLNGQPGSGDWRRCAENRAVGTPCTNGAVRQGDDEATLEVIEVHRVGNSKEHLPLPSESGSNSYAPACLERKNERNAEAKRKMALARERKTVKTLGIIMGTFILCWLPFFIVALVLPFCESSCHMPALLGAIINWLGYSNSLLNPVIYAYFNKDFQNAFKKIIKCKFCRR
One number for each entry, as −log10 of the molar value.

Could you tell me pKi for each of these compounds? They are listed below.
1. CCCN(C(C)C)[C@@H]1CCc2cccc(O)c2[C@@H]1C
2. CCCN(C(C)C)[C@H]1CCc2cccc(OC)c2[C@H]1C
3. CCCN(CCC)[C@@H]1CCc2ccccc2[C@@H]1C

Data returned:
[7.09, 5.85, 7.31]

====

# TESTED_ON: UniProtKB P14416
# Sequence (P14416 whole entry): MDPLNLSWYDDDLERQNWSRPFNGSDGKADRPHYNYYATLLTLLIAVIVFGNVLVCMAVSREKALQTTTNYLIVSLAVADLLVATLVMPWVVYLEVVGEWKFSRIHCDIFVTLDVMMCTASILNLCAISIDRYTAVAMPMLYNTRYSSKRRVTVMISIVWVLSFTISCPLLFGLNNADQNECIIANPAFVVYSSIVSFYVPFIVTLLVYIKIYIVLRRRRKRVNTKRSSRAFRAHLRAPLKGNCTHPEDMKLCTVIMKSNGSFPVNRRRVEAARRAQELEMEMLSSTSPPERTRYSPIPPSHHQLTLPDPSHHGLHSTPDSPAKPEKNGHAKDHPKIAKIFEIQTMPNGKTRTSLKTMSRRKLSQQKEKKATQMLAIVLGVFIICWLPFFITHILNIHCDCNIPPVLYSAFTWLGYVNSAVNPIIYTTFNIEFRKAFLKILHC
# TEST: In vitro binding affinity towards human Dopamine receptor D2A was determined in mouse fibroblast LtK cells using [3H]raclopride
OBSERVABLE: Ki (nM)
One number for each entry, in nM.

As a guide, the following entries are already answered.
CCCN(CCC)[C@@H]1CCc2cccc(O)c2[C@@H]1C	30
CCCN(CCC)[C@@H]1CCc2cccc(C(=O)OC)c2[C@@H]1C	58.8
CCCN(CCC)[C@@H]1CCc2cccc(C(C)=O)c2[C@@H]1C	40
CCCN(CCC)[C@@H]1CCc2cccc(OS(=O)(=O)C(F)(F)F)c2[C@@H]1C	124
CCCN(CCC)[C@@H]1CCc2ccccc2[C@@H]1C	87
CCCN(C(C)C)[C@@H]1CCc2cccc(O)c2[C@@H]1C	614
CCCN(CCC)[C@H]1CCc2cccc(OC)c2[C@H]1C	1050

Would you kindly look at the next entry?
Data request: Item under review: "CCCN(CCC)[C@@H]1CCc2cccc(OC)c2[C@@H]1C" . Reported Ki?
Data returned: 33.9

# credit: ChEMBL document CHEMBL1128333
